B1: CD2-associated protein, residues 109 to 169; numbered along this chain, Q9Y5K6 (parent)
chain: KKRQCKVLFEYIPQNEDELELKVGDIIDINEEVEEGWWSGTLNNKLGLFPSNFVKELEVTD

variants of: B1; assay: abundance fitness (aPCA) (normalised: wild type 0, dead -1); higher = more abundant; growth selection in yeast, the domain comes from the species named; settings: Homo sapiens
Form field: abundance fitness (one value per entry).

{"columns": ["VARIANT ID", "abundance fitness"],
 "data": [
  ["N44M", -0.318],
  ["L42N", 0.12],
  ["G47N", -0.723],
  ["E56L", -0.058],
  ["D28T", -0.209],
  ["N43S", -0.337],
  ["E34T", 0.008],
  ["E35K", -0.352],
  ["L48R", 0.273],
  ["L42F", -0.616],
  ["V59C", -0.123]
]}
